# system: human GABA A α5β3γ2 receptor (Homo sapiens, UniProt P18507+P31644)
# test-details: [3H]flumazenil competition binding to HEK293 cells expressing human GABA A receptors
# assay-conditions: competition for [3H]flumazenil (0.5 nM for α5); HEK293 cells expressing human (transiently transfected) receptors; means of two determinations; read-out: hKi GABA Aα5
assay-endpoint: pKi
Answers are plain numbers, as −log10 of the molar value.

CCCCc1noc(C)c1COc1ccc(C(=O)NC2CCOC2)cn1 (stereo not shown) ... 8.30
CCCCc1noc(C)c1COc1ccc(C(=O)NC(C)CO)cn1 (racemic) [Example 9] ... 8.51
Cc1onc(C2CCOCC2)c1COc1ccc(C(=O)NC(C)C)cn1 ... 7.66
Cc1onc(C2CCCCC2)c1COc1ccc(C(=O)NC(C)C)cn1 ... 8.37
Cc1onc(CCC(F)(F)F)c1COc1ccc(C(=O)NC(C)C)cn1 ... 7.31

Quick request: pKi for each listed item, please.
1. CCCC(C)c1noc(C)c1COc1ccc(C(=O)NC(C)C)cn1 (stereo not shown)
2. CCCCc1noc(C)c1CNc1ccc(C(=O)NC(C)CO)cn1 (stereo not shown)
3. Cc1onc(C2CCCCC2)c1COc1ccc(C(=O)NCCO)cn1

Out:
[7.15, 7.11, 8.24]

Quick request: pKi for each listed item, please.
1. Cc1onc(C2CCCC2)c1COc1ccc(C(=O)NC(C)C)cn1
2. CCCCc1nocc1COc1ccc(C(=O)NCC(F)(F)F)cn1
3. CCCCc1noc(C)c1COc1ccc(C(=O)NC2CCOCC2)cn1
4. CCCCc1noc(C)c1COc1ccc(C(=O)N[C@@H](C)C(F)(F)F)cn1 [Example 19]
5. Cc1onc(N2CCCC2)c1COc1ccc(C(=O)NC(C)C)cn1

Out:
1: 7.42; 2: 7.35; 3: 8.28; 4: 8.08; 5: 8.40

Quick request: pKi for each listed item, please.
1. CCCCc1noc(C)c1COc1ccc(C(=O)N2CCC2)cn1
2. CCCCc1noc(C)c1COc1ccc(C(=O)N2CCS(=O)(=O)CC2)cn1
3. Cc1onc(C2CCCCC2)c1COc1ccc(C(=O)NC2CCOCC2)cn1
4. CCCCc1noc(C)c1COc1ccc(C(=O)NCC(C)(C)O)cn1
5. CCCCc1noc(C)c1CNc1ccc(C(=O)NC(C)C)cn1

Out:
[7.46, 7.68, 8.28, 8.04, 7.24]

Quick request: pKi for each listed item, please.
1. CCCCc1noc(C)c1COc1ccc(C(=O)N[C@H]2CCOC2)cn1
2. Cc1onc(C2CCCCC2)c1COc1ccc(C(=O)NC2CC2)cn1
3. CCCCc1noc(C)c1COc1ccc(C(=O)NCCO)cn1
4. CCCCc1noc(C)c1COc1ccc(C(=O)Nc2ccn(C)n2)cn1
5. CCCCc1nocc1COc1ccc(C(=O)NC2CCOCC2)cn1
6. CCCCc1noc(C)c1COc1ccc(C(=O)NC2CC2)cn1
7. CCCCc1noc(C)c1COc1ccc(C(=O)NC(CO)CO)cn1

Out:
1: 8.19; 2: 8.33; 3: 8.24; 4: 7.97; 5: 7.28; 6: 8.19; 7: 8.24
